Tested on: Surinam grass (Brachiaria decumbens)
TEST_NAME: Test B pre-/postemergence plant response
Format: in vivo
CONDITION_PARAMETERS: Postemergence, 62 g ai/ha; scale 0 to 100 (0 no effect, 100 complete control)
In this section we review reported Plant response rating, Surinam Grass values for a set of compounds.
Please reply with the value in numeric form only.

## Task Name the reported Plant response rating, Surinam Grass value associated with the compound COCCn1c(-c2cccc(F)c2)ncc(C(=O)C2=C(O)C3CCC(C3)C2=O)c1=O (stereo not shown)
## Result 90

## Task Name the reported Plant response rating, Surinam Grass value associated with the compound CCn1c(-c2ccccc2)ncc(C(=O)C2=C(O)C3CCC(C3)C2=O)c1=O (stereo not shown)
## Result 35

## Task Name the reported Plant response rating, Surinam Grass value associated with the compound COCCCn1c(-c2cccc(F)c2)ncc(C(=O)C2=C(O)C3CCC(C3)C2=O)c1=O (stereo not shown)
## Result 100

## Task Name the reported Plant response rating, Surinam Grass value associated with the compound COCCn1c(-c2ccsc2)ncc(C(=O)C2=C(O)C3CCC(C3)C2=O)c1=O (stereo not shown)
## Result 85

----------
System: downy bromegrass (Bromus tectorum)
TEST_NAME: Test B pre-/postemergence plant response
Format: in vivo
CONDITION_PARAMETERS: Preemergence, 125 g ai/ha; scale 0 to 100, 0 no effect, 100 complete control
MEASURED_PARAMETER: Plant response rating, Bromegrass, Downy
Please reply with the value in numeric form only.

Reference set (5 entries):
CCCCc1ncc(C(=O)C2=C(O)CCCC2=O)c(=O)n1-c1ccc(C)cc1 [Compound 67]	0
CCCCn1c(-c2cc(F)cc(F)c2)ncc(C(=O)C2=C(O)C3CCC(C3)C2=O)c1=O (stereo not drawn) [Compound 245]	0
Cn1c(-c2ccccc2)ncc(C(=O)C2=C(O)CCCC2=O)c1=O [Compound 55]	0
CCCCc1ncc(C(=O)C2=C(O)CCCC2=O)c(=O)n1-c1cccc(C)c1 [Compound 63]	0
CCCc1ncc(C(=O)C2=C(O)CCCC2=O)c(=O)n1-c1ccccc1C [Compound 73]	5

We now examine a further molecule.
## Task Name the reported Plant response rating, Bromegrass, Downy value associated with the molecule CCc1ccc(-n2c(-c3ccccc3)ncc(C(=O)C3=C(O)CCCC3=O)c2=O)cc1 [Compound 219]
## Result 10

----------
In this section we review reported Plant response rating, Bromegrass, Downy values for a set of compounds.
System: downy bromegrass (Bromus tectorum)
TEST_NAME: Test B pre-/postemergence plant response
Assay type: in vivo
CONDITION_PARAMETERS: Postemergence, 250 g ai/ha; scale 0 to 100 (0 no effect, 100 complete control); 13 to 15 days
Please reply with the value in numeric form only.

CCCCn1c(-c2cccc(F)c2)ncc(C(=O)C2=C(O)C3CCC(C3)C2=O)c1=O (stereo not shown) [Compound 237]	95

## Task Can you look up Plant response rating, Bromegrass, Downy on downy bromegrass (Bromus tectorum) for O=C1CCCC(O)=C1C(=O)c1cnc(-c2ccc(F)cc2)n(C2CCCCC2)c1=O [Compound 197] ?
## Result 30

## Task Can you look up Plant response rating, Bromegrass, Downy on downy bromegrass (Bromus tectorum) for COCCn1c(-c2cccc(Cl)c2)ncc(C(=O)C2=C(O)CCCC2=O)c1=O [Compound 147] ?
## Result 10

## Task Can you look up Plant response rating, Bromegrass, Downy on downy bromegrass (Bromus tectorum) for O=C1CCCC(O)=C1C(=O)c1cnc(-c2cccs2)n(C2CCCCC2)c1=O [Compound 189] ?
## Result 10

----------
Tested on: yellow nutsedge (Cyperus esculentus)
TEST_NAME: Test B pre-/postemergence plant response
Format: in vivo
CONDITION_PARAMETERS: Preemergence, 125 g ai/ha; 0 to 100 scale
In this section we review reported Nutsedge, Yellow plant response rating values for a set of molecules.

Reference set (3 entries):
O=C1CCCC(O)=C1C(=O)c1cnc(-c2ccccc2)n(-c2ccccc2F)c1=O [Compound 26]	50
Cc1cccc(Cl)c1-n1c(-c2ccccc2)ncc(C(=O)C2=C(O)CCCC2=O)c1=O [Compound 46]	80
O=C1CCCC(O)=C1C(=O)c1cnc(-c2ccccc2)n(-c2cccc(Br)c2)c1=O [Compound 38]	70

We now examine a further molecule.
## Task Can you look up Nutsedge, Yellow plant response rating on yellow nutsedge (Cyperus esculentus) for Cc1cc(C)cc(-n2c(-c3ccccc3)ncc(C(=O)C3=C(O)CCCC3=O)c2=O)c1 [Compound 33] ?
## Result 70

----------
In this section we review reported Wheat plant response rating values for a set of compounds.
Test system: wheat (Triticum aestivum)
TEST_NAME: Test B pre-/postemergence plant response
Assay type: in vivo
CONDITION_PARAMETERS: Preemergence, 250 g ai/ha; 0 to 100 scale
Please reply with the value in numeric form only.

CCCn1c(-c2cccs2)ncc(C(=O)C2=C(O)CCCC2=O)c1=O	0

## Task Name the reported Wheat plant response rating value associated with the compound `COCCn1c(-c2cc(F)cc(F)c2)ncc(C(=O)C2=C(O)CCCC2=O)c1=O`
## Result 50

## Task Name the reported Wheat plant response rating value associated with the compound `COCCCn1c(-c2cc(F)cc(F)c2)ncc(C(=O)C2=C(O)CCCC2=O)c1=O`
## Result 30

## Task Name the reported Wheat plant response rating value associated with the compound COCCn1c(-c2cc(F)cc(F)c2)ncc(C(=O)C2=C(O)C3CCC(C3)C2=O)c1=O (stereo not shown)
## Result 70

----------
System: Surinam grass (Brachiaria decumbens)
TEST_NAME: Test B pre-/postemergence plant response
Type: in vivo
CONDITION_PARAMETERS: Preemergence, 250 g ai/ha; 0 to 100 scale
In this section we review reported Surinam Grass plant response rating values for a set of compounds.
Please reply with the value in numeric form only.

Reference set (3 entries):
CCc1ccc(-n2c(-c3ccccc3)ncc(C(=O)C3=C(O)CCCC3=O)c2=O)cc1 [Compound 219]	100
CCCc1ncc(C(=O)C2=C(O)CCCC2=O)c(=O)n1CC1CCCO1 (stereo not shown) [Compound 74]	95
COCCn1c(-c2cc(F)cc(F)c2)ncc(C(=O)C2=C(O)C3CCC(C3)C2=O)c1=O (stereo not shown) [Compound 243]	100

We now examine a further compound.
## Task Can you look up Surinam Grass plant response rating on Surinam grass (Brachiaria decumbens) for CCCn1c(-c2cccs2)ncc(C(=O)C2=C(O)CCCC2=O)c1=O [Compound 77] ?
## Result 100

----------
Test system: barnyardgrass (Echinochloa crus-galli)
TEST_NAME: Test A pre-/postemergence plant response
Assay type: in vivo
CONDITION_PARAMETERS: Preemergence, 125 g ai/ha; 0 to 100 scale, 0 = no effect, 100 = complete control
Source text: Seeds of barnyardgrass (Echinochloa crus-galli), large crabgrass (Digitaria sanguinalis), giant foxtail (Setaria faberii), morningglory (Ipomoea spp.), pigweed (Amaranthus retroflexus), velvetleaf (Abutilon theophrasti), wheat (Triticum aestivum) and corn (Zea mays) were planted into a blend of loam soil and sand and treated preemergence with a directed soil spray using test chemicals formulated in a non-phytotoxic solvent mixture which included a surfactant. […]
MEASURED_PARAMETER: Plant response rating, Barnyardgrass
Please reply with the value in numeric form only.

CCc1ccc(-n2c(-c3cc(F)cc(F)c3)ncc(C(=O)C3=C(O)CCCC3=O)c2=O)cc1	20
CCCCn1c(-c2cccc(C)c2)ncc(C(=O)C2=C(O)CCCC2=O)c1=O	10

## Task Name the reported Plant response rating, Barnyardgrass value associated with the compound `O=C1CCCC(O)=C1C(=O)c1cnc(-c2ccccc2)n(-c2cccc(F)c2)c1=O`
## Result 10

## Task Name the reported Plant response rating, Barnyardgrass value associated with the compound COCC(C)n1c(-c2ccccc2)ncc(C(=O)C2=C(O)CCCC2=O)c1=O (stereo not shown)
## Result 40

----------
Tested on: cocklebur (Xanthium strumarium)
TEST_NAME: Test B pre-/postemergence plant response
Type: in vivo
CONDITION_PARAMETERS: Postemergence, 125 g ai/ha; visual rating after 13 to 15 days, scale 0 (no effect) to 100 (complete control)
In this section we review reported Plant response rating, Cocklebur values for a set of compounds.
Please reply with the value in numeric form only.

Cc1cc(C)cc(-n2c(-c3ccccc3)ncc(C(=O)C3=C(O)CCCC3=O)c2=O)c1	95
Cc1ccc(F)cc1-n1c(-c2ccccc2)ncc(C(=O)C2=C(O)CCCC2=O)c1=O	90
O=C1CCCC(O)=C1C(=O)c1cnc(-c2ccccc2Br)n(-c2ccccc2)c1=O	95
CC(C)CC(=O)OC1=C(C(=O)c2cnc(-c3ccccc3)n(-c3ccccc3)c2=O)C(=O)CCC1	80
CCCCn1c(-c2ccccc2)ncc(C(=O)C2=C(O)CCCC2=O)c1=O	95

## Task Name the reported Plant response rating, Cocklebur value associated with the compound `CC(C)n1c(-c2ccccc2)ncc(C(=O)C2=C(O)CCCC2=O)c1=O`
## Result 100

## Task Name the reported Plant response rating, Cocklebur value associated with the compound `Cc1cc(-n2c(-c3ccccc3)ncc(C(=O)C3=C(O)CCCC3=O)c2=O)ccc1F`
## Result 85

## Task Name the reported Plant response rating, Cocklebur value associated with the compound `Cc1cccc(Cl)c1-n1c(-c2ccccc2)ncc(C(=O)C2=C(O)CCCC2=O)c1=O`
## Result 80
